Assay: Binding affinity of compound towards dopamine receptor D2 was determined
Design: species or system Homo sapiens
Each entry below carries its recorded Log 1/Ki.
Number only, please.

| molecule | Log 1/Ki |
| --- | --- |
| COc1ccccc1N1CCN(CCNC2=C(Br)CN3c4c(n(C)c(=O)n(C)c4=O)NC3N2)CC1 (stereo not given) | 6.65 |

Query Cn1c2c(c(=O)n(C)c1=O)N1CC=C(NCCN3CCN(c4cccc(Cl)c4)CC3)NC1N2 (stereo not given) yields Log 1/Ki of 6.74

Query COc1ccccc1N1CCN(CCNC2=CCN3c4c(n(C)c(=O)n(C)c4=O)NC3N2)CC1 (stereo not given) yields Log 1/Ki of 5.88

Query Cn1c2c(c(=O)n(C)c1=O)N1CC(Br)=C(NCCN3CCN(c4cccc(Cl)c4)CC3)NC1N2 (stereo not given) yields Log 1/Ki of 6.78

Query `Cn1c(=O)c2c(nc3nc(NCCCN4CCN(c5ccccc5)CC4)ccn32)n(C)c1=O` yields Log 1/Ki of 6.37
